Values were extracted from patent US10501734B2.

assay.notes: ATP-PPi exchange assay (amino acid activation)
Type: biochemical
condition.notes: nsAA pAzF
measure: kcat

Recorded results for 3 molecules are shown here.
pAcFRS.2.t1: pAcFRS variant L65V, A167D, R257G, SEQ ID NO: 8 (protein) MDEFEMIKRNTSEIISEEELREVLKKDEKSALIGFEPSGKIHLGHYLQIKKMIDLQNAGFDIIIVLADLHAYLNQKGELDEIRKIGDYNKKVFEAMGLKAKYVYGSEFQLDKDYTLNVYRLALKTTLKRARRSMELIAREDENPKVAEVIYPIMQVNGCHYRGVDVDVGGMEQRKIHMLARELLPKKVVCIHNPVLTGLDGEGKMSSSKGNFIAVDDSPEEIRAKIKKAYCPAGVVEGNPIMEIAKYFLEYPLTIKGPEKFGGDLTVNSYEELESLFKNKELHPMRLKNAVAEELIKILEPIRKRL = 4.22 ± 0.45 ×10^−2 s^−1
pAzFRS.2: pAcFRS variant E107T, F108Y, Q109M, SEQ ID NO: 13 (protein) MDEFEMIKRNTSEIISEEELREVLKKDEKSALIGFEPSGKIHLGHYLQIKKMIDLQNAGFDIIILLADLHAYLNQKGELDEIRKIGDYNKKVFEAMGLKAKYVYGSTYMLDKDYTLNVYRLALKTTLKRARRSMELIAREDENPKVAEVIYPIMQVNGCHYRGVDVAVGGMEQRKIHMLARELLPKKVVCIHNPVLTGLDGEGKMSSSKGNFIAVDDSPEEIRAKIKKAYCPAGVVEGNPIMEIAKYFLEYPLTIKRPEKFGGDLTVNSYEELESLFKNKELHPMRLKNAVAEELIKILEPIRKRL = 4.13 ± 0.86 ×10^−2 s^−1
pAcFRS.1: pAcFRS variant A167D, SEQ ID NO: 2 (protein) MDEFEMIKRNTSEIISEEELREVLKKDEKSALIGFEPSGKIHLGHYLQIKKMIDLQNAGFDIIILLADLHAYLNQKGELDEIRKIGDYNKKVFEAMGLKAKYVYGSEFQLDKDYTLNVYRLALKTTLKRARRSMELIAREDENPKVAEVIYPIMQVNGCHYRGVDVDVGGMEQRKIHMLARELLPKKVVCIHNPVLTGLDGEGKMSSSKGNFIAVDDSPEEIRAKIKKAYCPAGVVEGNPIMEIAKYFLEYPLTIKRPEKFGGDLTVNSYEELESLFKNKELHPMRLKNAVAEELIKILEPIRKRL = 3.50 ± 0.20 ×10^−2 s^−1

Now look at this entry.
## Task Answer with reported kcat of pAcFRS.2: pAcFRS variant L65V, A167D, SEQ ID NO: 7 (protein) MDEFEMIKRNTSEIISEEELREVLKKDEKSALIGFEPSGKIHLGHYLQIKKMIDLQNAGFDIIIVLADLHAYLNQKGELDEIRKIGDYNKKVFEAMGLKAKYVYGSEFQLDKDYTLNVYRLALKTTLKRARRSMELIAREDENPKVAEVIYPIMQVNGCHYRGVDVDVGGMEQRKIHMLARELLPKKVVCIHNPVLTGLDGEGKMSSSKGNFIAVDDSPEEIRAKIKKAYCPAGVVEGNPIMEIAKYFLEYPLTIKRPEKFGGDLTVNSYEELESLFKNKELHPMRLKNAVAEELIKILEPIRKRL
## Result 4.08 ± 0.20 ×10^−2 s^−1
